Below, each entry is listed with its recorded kcat/Km.
experimental-target: PRMT1 (Homo sapiens)
Construct: made in house
method: MTase-Glo Methyltransferase Assay, kinetic parameters of peptide substrates
Format: biochemical
recorded-conditions: from kcat and Km, MTase-Glo assay, 37 °C, Tris pH 8.0
measurement-label: kcat/Km (M⁻¹ s⁻¹)

[
  {
    "sequence-string": "XCCVARGGKGLGKGGAK [Well G2 Peptide, “hit” library peptide X…, X = acetylated lysine]",
    "experimental-target": "PRMT1 (Homo sapiens)",
    "scale-unit": "M⁻¹ s⁻¹",
    "reported": 648
  },
  {
    "sequence-string": "XKCKARGGKGLGKGGAK [VALPep1]",
    "experimental-target": "PRMT1 (Homo sapiens)",
    "scale-unit": "M⁻¹ s⁻¹",
    "reported": 4700
  },
  {
    "sequence-string": "XKCVVRGGKGLGKGGAK [VALPep3]",
    "experimental-target": "PRMT1 (Homo sapiens)",
    "scale-unit": "M⁻¹ s⁻¹",
    "reported": 2230
  },
  {
    "sequence-string": "XKKKARGGKGLGKGGAK [VALPep2]",
    "experimental-target": "PRMT1 (Homo sapiens)",
    "scale-unit": "M⁻¹ s⁻¹",
    "reported": 5480
  },
  {
    "sequence-string": "VKVCXRGGKGLGKGGAK [Well D5 Peptide, “hit” library peptide VKVCX…, X = acetylated lysine]",
    "experimental-target": "PRMT1 (Homo sapiens)",
    "scale-unit": "M⁻¹ s⁻¹",
    "reported": 4700
  },
  {
    "sequence-string": "XKKVVRGGKGLGKGGAK [VALPep4]",
    "experimental-target": "PRMT1 (Homo sapiens)",
    "scale-unit": "M⁻¹ s⁻¹",
    "reported": 3600
  }
]

---

Below, each entry is listed with its recorded kcat.
experimental-target: PRMT1 (Homo sapiens, UniProt Q99873)
Construct: made in house
Sequence (Q99873 1-353 isoform Q99873-3): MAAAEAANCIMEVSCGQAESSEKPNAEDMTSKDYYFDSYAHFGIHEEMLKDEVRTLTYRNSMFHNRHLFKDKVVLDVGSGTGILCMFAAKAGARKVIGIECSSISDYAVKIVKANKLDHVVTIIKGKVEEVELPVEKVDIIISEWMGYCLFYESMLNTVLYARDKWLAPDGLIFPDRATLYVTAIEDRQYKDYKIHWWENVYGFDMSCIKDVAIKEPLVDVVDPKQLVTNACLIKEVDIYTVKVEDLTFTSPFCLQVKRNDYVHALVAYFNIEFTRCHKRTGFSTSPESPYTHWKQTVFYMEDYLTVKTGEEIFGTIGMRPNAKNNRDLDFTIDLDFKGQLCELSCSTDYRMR
method: MTase-Glo Methyltransferase Assay, kinetic parameters of peptide substrates
Assay type: biochemical
recorded-conditions: MTase-Glo luminescence; peptide 0–1000 µM; 4 µL of 200 nM PRMT1; 10 min at 37 °C; Tris pH 8.0; SAH standards; fit with GraFit
measurement-label: kcat (s⁻¹)

[
  {
    "sequence-string": "XKCKARGGKGLGKGGAK [VALPep1]",
    "reported": 0.041
  },
  {
    "sequence-string": "XKKVVRGGKGLGKGGAK [VALPep4]",
    "reported": 0.0268
  },
  {
    "sequence-string": "XKCVVRGGKGLGKGGAK [VALPep3]",
    "reported": 0.0154
  },
  {
    "sequence-string": "XCCVARGGKGLGKGGAK [Well G2 Peptide, “hit” library peptide X…, X = acetylated lysine]",
    "reported": 0.0164
  },
  {
    "sequence-string": "VKVCXRGGKGLGKGGAK [Well D5 Peptide, “hit” library peptide VKVCX…, X = acetylated lysine]",
    "reported": 0.0318
  },
  {
    "sequence-string": "XKKKARGGKGLGKGGAK [VALPep2]",
    "reported": 0.043
  }
]

---

Tested on: PRMT1
method: Plate-based on-bead substrate screening assay (ADMA antibody / alkaline phosphatase / BCIP)
Assay type: biochemical
recorded-conditions: 20 beads/well; 500 nM PRMT1, 400 µM SAM, 37 °C, HEPES pH 8.0; hit = at least 10 blue beads per well
measurement-label: hit / non-hit as PRMT1 substrate in the plate-based screen

[
  {
    "sequence-string": "WWXXWRGGKGLGKGGAK [Well B10 Peptide, “non-hit” library peptide WWXX…, X = acetylated lysine]",
    "reported": "non-hit"
  },
  {
    "sequence-string": "VKVCXRGGKGLGKGGAK [Well D5 Peptide, “hit” library peptide VKVCX…, X = acetylated lysine]",
    "reported": "hit"
  },
  {
    "sequence-string": "VXWAWRGGKGLGKGGAK [Well E9 Peptide, “non-hit” library peptide VX…, X = acetylated lysine]",
    "reported": "non-hit"
  },
  {
    "sequence-string": "XCCVARGGKGLGKGGAK [Well G2 Peptide, “hit” library peptide X…, X = acetylated lysine]",
    "reported": "hit"
  }
]
